# procedure.text: changes in parasitized red cell lysis, either direction – P. falciparum Indochina, OD700, 3 h, PSAC antagonist project, primary screen (AID 1156)
# condition.label: P. falciparum-infected erythrocytes, osmotic lysis, higher = more signal, called active from +8 up or from −8 down
Active and inactive are the calls of the source.
Known z-score of a selection of compounds

Reference set (2 entries):
Given item COC(=O)C1=CC(CCCO)=CC(c2ccc(CN3CCCC3)cc2)N(Cc2cccc(OC(F)(F)F)c2)C=C1C(=O)OC (stereo not drawn) , the value recorded as its z-score is 0.456 (inactive)

Given item COCCOC(=O)N1C(=O)[C@@]2(c3cc(C#CC4=CCCCC4)ccc31)[C@H](c1ccccc1OCCO)N1[C@H](c3ccccc3)[C@H](c3ccccc3)OC(=O)[C@H]1[C@@H]2C(=O)NC[C@H](O)c1ccccc1 , the value recorded as its z-score is -1.61 (inactive)

// next entry
Given item CC(C)=C1C(=O)C(c2ccccc2)=C2CN3C(=O)N(CCc4ccccc4)C(=O)[C@]3(Cc3ccc(C(F)(F)F)cc3)[C@H]21 , the value recorded as its z-score is 0.511 (inactive)
